Taken from PubChem BioAssay (NCI).

test system: OVCAR-8 ovarian; test: NCI-60 one-dose screen, 48 h; details: 10 µM unless noted
Compounds without any hit were thinned out: in the full panel of roughly 83,000, 20% have a hit. The source made the active and inactive calls. How the source made its calls: active means growth percent below 10; inactive means the rest.
Form entry, call: pick from active, inactive

# compound, classification
records = [
    ("CC(C)(C)C(=O)OCOP(=O)(OCOC(=O)C(C)(C)C)C1CC(O)N(O)C1=O (stereo unspecified)", "inactive"),
    ("CC(C)(CNC1CCCCC1)OC(=O)c1ccccc1", "inactive"),
    ("CC(=O)N(N=O)c1ccc([N+](=O)[O-])cc1Cl", "inactive"),
    ("Cc1ccc(CC(=O)O)c(C)c1", "inactive"),
    ("COc1cc(OC)c(/C=C/c2ccc3ccccc3[n+]2C)c(OC)c1", "active"),
]

Now let's try a different one.
Identify the outcome logged in this assay for the compound shown: O=c1c2c(c3ccccc3n1-c1ccccc1)NC(=S)NC2c1ccc(Cl)cc1 (stereo unspecified)
inactive
